Record form. Attribute: selectivity (A1/A2a). Fill in for each entry.
- Experimental target: human adenosine A2A receptor (Homo sapiens, UniProt P29274)
- Construct: expressed in transfected cells; host or cells: CHO cells, Semliki Forest virus expression system; membrane preparation
- Sequence (P29274 whole entry): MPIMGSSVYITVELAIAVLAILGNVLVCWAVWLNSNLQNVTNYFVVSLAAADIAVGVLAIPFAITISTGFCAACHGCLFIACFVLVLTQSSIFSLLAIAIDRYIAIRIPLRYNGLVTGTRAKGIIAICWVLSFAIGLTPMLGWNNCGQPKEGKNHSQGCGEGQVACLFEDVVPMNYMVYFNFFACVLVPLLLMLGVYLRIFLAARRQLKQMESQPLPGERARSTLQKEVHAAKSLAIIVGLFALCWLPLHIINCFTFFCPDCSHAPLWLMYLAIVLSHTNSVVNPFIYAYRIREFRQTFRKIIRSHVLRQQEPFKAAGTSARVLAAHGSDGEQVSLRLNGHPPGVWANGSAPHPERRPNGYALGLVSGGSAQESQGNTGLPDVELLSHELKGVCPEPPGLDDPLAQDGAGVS
- Test protocol: Human adenosine A2A receptor [3H]-SCH-58261 binding assay
- Particulars: calculated ratio of the affinity to the HA1 receptor to the HA2a receptor
Lab note: record just the number, no unit beside it.

stdin: Notebook entry, human adenosine A2A receptor (Homo sapiens, UniProt P29274) assay: selectivity (A1/A2a) of CCCCNC(=O)c1cc(N)n2nc(-c3cccnc3)nc2c1 [Example 80] = ?
stdout: 13.4

stdin: Notebook entry, human adenosine A2A receptor (Homo sapiens, UniProt P29274) assay: selectivity (A1/A2a) of Nc1cc(C(=O)N2CCc3ccccc3C2)cc2nc(-c3ccccn3)nn12 [Example 30] = ?
stdout: 10.1

stdin: Notebook entry, human adenosine A2A receptor (Homo sapiens, UniProt P29274) assay: selectivity (A1/A2a) of Nc1cc(C(=O)NCc2ccccc2Cl)cc2nc(-c3ccccn3)nn12 [Example 39] = ?
stdout: 4.2

stdin: Notebook entry, human adenosine A2A receptor (Homo sapiens, UniProt P29274) assay: selectivity (A1/A2a) of CCCN(CCC)C(=O)c1cc(N)n2nc(-c3nccs3)nc2c1 [Example 331] = ?
stdout: 30.9

stdin: Notebook entry, human adenosine A2A receptor (Homo sapiens, UniProt P29274) assay: selectivity (A1/A2a) of CCCCNC(=O)c1cc(N)n2nc(-c3ccco3)nc2c1 [Example 104] = ?
stdout: 46.0

stdin: Notebook entry, human adenosine A2A receptor (Homo sapiens, UniProt P29274) assay: selectivity (A1/A2a) of CCN(CC)C(=O)c1cc(N)n2nc(-c3nccs3)nc2c1 [Example 120] = ?
stdout: 35.4

stdin: Notebook entry, human adenosine A2A receptor (Homo sapiens, UniProt P29274) assay: selectivity (A1/A2a) of C[C@@H]1CCC[C@H](C)N1C(=O)c1cc(N)n2nc(-c3nccs3)nc2c1 [Example 358] = ?
stdout: 23.0

stdin: Notebook entry, human adenosine A2A receptor (Homo sapiens, UniProt P29274) assay: selectivity (A1/A2a) of CN(Cc1ccccc1)C(=O)c1cc(N)n2nc(-c3ccc(Br)o3)nc2c1 [Example 343] = ?
stdout: 15.6

stdin: Notebook entry, human adenosine A2A receptor (Homo sapiens, UniProt P29274) assay: selectivity (A1/A2a) of CC(C)N(Cc1ccccc1)C(=O)c1cc(N)n2nc(-c3cccn3C)nc2c1 [Example 135] = ?
stdout: 10.9

stdin: Notebook entry, human adenosine A2A receptor (Homo sapiens, UniProt P29274) assay: selectivity (A1/A2a) of Nc1cc(C(=O)NCc2ccccc2Br)cc2nc(-c3ccoc3)nn12 [Example 157] = ?
stdout: 12.8

stdin: Notebook entry, human adenosine A2A receptor (Homo sapiens, UniProt P29274) assay: selectivity (A1/A2a) of Nc1cc(C(=O)NCc2ccccc2Cl)cc2nc(-c3ccccc3)nn12 [Example 218] = ?
stdout: 2.5

stdin: Notebook entry, human adenosine A2A receptor (Homo sapiens, UniProt P29274) assay: selectivity (A1/A2a) of COc1ccc(CNC(=O)c2cc(N)n3nc(-c4cc(Br)co4)nc3c2)cc1 [Example 176] = ?
stdout: 0.5

stdin: Notebook entry, human adenosine A2A receptor (Homo sapiens, UniProt P29274) assay: selectivity (A1/A2a) of CCN(Cc1ccccc1)C(=O)c1cc(N)n2nc(-c3ccc(Br)o3)nc2c1 [Example 307] = ?
stdout: 12.5

stdin: Notebook entry, human adenosine A2A receptor (Homo sapiens, UniProt P29274) assay: selectivity (A1/A2a) of CN(C(=O)c1cc(N)n2nc(-c3nccs3)nc2c1)C1CCCCC1 [Example 124] = ?
stdout: 15.2

stdin: Notebook entry, human adenosine A2A receptor (Homo sapiens, UniProt P29274) assay: selectivity (A1/A2a) of C#CCN(C)C(=O)c1cc(N)n2nc(-c3nccs3)nc2c1 [Example 282] = ?
stdout: 48.5

stdin: Notebook entry, human adenosine A2A receptor (Homo sapiens, UniProt P29274) assay: selectivity (A1/A2a) of CC(C)N(C)C(=O)c1cc(N)n2nc(-c3ccc(Br)o3)nc2c1 [Example 269] = ?
stdout: 40.9

stdin: Notebook entry, human adenosine A2A receptor (Homo sapiens, UniProt P29274) assay: selectivity (A1/A2a) of CCCNC(=O)c1cc(N)n2nc(-c3ccc(OC)s3)nc2c1 [Example 71] = ?
stdout: 2.8

stdin: Notebook entry, human adenosine A2A receptor (Homo sapiens, UniProt P29274) assay: selectivity (A1/A2a) of C=CCN(CC=C)C(=O)c1cc(N)n2nc(-c3nccs3)nc2c1 [Example 290] = ?
stdout: 22.2

stdin: Notebook entry, human adenosine A2A receptor (Homo sapiens, UniProt P29274) assay: selectivity (A1/A2a) of Nc1cc(C(=O)N(CCc2ccccc2)Cc2ccccc2)cc2nc(-c3ccc[nH]3)nn12 [Example 96] = ?
stdout: 3.4

stdin: Notebook entry, human adenosine A2A receptor (Homo sapiens, UniProt P29274) assay: selectivity (A1/A2a) of CCCCNC(=O)c1cc(N)n2nc(-c3ccc(C)o3)nc2c1 [Example 137] = ?
stdout: 19.8

stdin: Notebook entry, human adenosine A2A receptor (Homo sapiens, UniProt P29274) assay: selectivity (A1/A2a) of Nc1cc(C(=O)N2CCSCC2)cc2nc(-c3ccc(Cl)o3)nn12 [Example 256] = ?
stdout: 17.7

stdin: Notebook entry, human adenosine A2A receptor (Homo sapiens, UniProt P29274) assay: selectivity (A1/A2a) of Nc1cc(C(=O)N2CCN(c3ccccc3)CC2)cc2nc(-c3ccc(Br)o3)nn12 [Example 353] = ?
stdout: 12.7

stdin: Notebook entry, human adenosine A2A receptor (Homo sapiens, UniProt P29274) assay: selectivity (A1/A2a) of Nc1cc(C(=O)NCc2ccccc2)cc2nc(-c3ccc(Cl)o3)nn12 [Example 238] = ?
stdout: 2.3

stdin: Notebook entry, human adenosine A2A receptor (Homo sapiens, UniProt P29274) assay: selectivity (A1/A2a) of COCCN(CCOC)C(=O)c1cc(N)n2nc(-c3ccc(Br)o3)nc2c1 [Example 305] = ?
stdout: 26.8

stdin: Notebook entry, human adenosine A2A receptor (Homo sapiens, UniProt P29274) assay: selectivity (A1/A2a) of Cc1ccc(-c2nc3cc(C(=O)NC4CCCCC4)cc(N)n3n2)o1 [Example 138] = ?
stdout: 10.3

stdin: Notebook entry, human adenosine A2A receptor (Homo sapiens, UniProt P29274) assay: selectivity (A1/A2a) of CC(C)N(C)C(=O)c1cc(N)n2nc(-c3nccs3)nc2c1 [Example 285] = ?
stdout: 32.6

stdin: Notebook entry, human adenosine A2A receptor (Homo sapiens, UniProt P29274) assay: selectivity (A1/A2a) of Cc1ccc(-c2nc3cc(C(=O)NCc4ccccc4)cc(N)n3n2)o1 [Example 210] = ?
stdout: 6.1

stdin: Notebook entry, human adenosine A2A receptor (Homo sapiens, UniProt P29274) assay: selectivity (A1/A2a) of COc1ccc(CNC(=O)c2cc(N)n3nc(-c4nccs4)nc3c2)cc1OC [Example 208] = ?
stdout: 5.9

stdin: Notebook entry, human adenosine A2A receptor (Homo sapiens, UniProt P29274) assay: selectivity (A1/A2a) of CN(C(=O)c1cc(N)n2nc(-c3ccoc3)nc2c1)C1CCCCC1 [Example 222] = ?
stdout: 8.5

stdin: Notebook entry, human adenosine A2A receptor (Homo sapiens, UniProt P29274) assay: selectivity (A1/A2a) of Nc1cc(C(=O)N2CCCCC2)cc2nc(-c3ccoc3)nn12 [Example 155] = ?
stdout: 19.4

stdin: Notebook entry, human adenosine A2A receptor (Homo sapiens, UniProt P29274) assay: selectivity (A1/A2a) of COc1ccc(CNC(=O)c2cc(N)n3nc(-c4ccco4)nc3c2)cc1 [Example 183] = ?
stdout: 9.0

stdin: Notebook entry, human adenosine A2A receptor (Homo sapiens, UniProt P29274) assay: selectivity (A1/A2a) of CCN(Cc1ccncc1)C(=O)c1cc(N)n2nc(-c3nccs3)nc2c1 [Example 325] = ?
stdout: 35.2

stdin: Notebook entry, human adenosine A2A receptor (Homo sapiens, UniProt P29274) assay: selectivity (A1/A2a) of Cc1ccc(-c2nc3cc(C(=O)N4CCOCC4)cc(N)n3n2)s1 [Example 115] = ?
stdout: 13.2

stdin: Notebook entry, human adenosine A2A receptor (Homo sapiens, UniProt P29274) assay: selectivity (A1/A2a) of CC1CC(C)CN(C(=O)c2cc(N)n3nc(-c4nccs4)nc3c2)C1 (stereo not shown) [Example 333] = ?
stdout: 47.9

stdin: Notebook entry, human adenosine A2A receptor (Homo sapiens, UniProt P29274) assay: selectivity (A1/A2a) of CCN(Cc1ccccc1)C(=O)c1cc(N)n2nc(-c3ccc(Cl)o3)nc2c1 [Example 261] = ?
stdout: 14.7

stdin: Notebook entry, human adenosine A2A receptor (Homo sapiens, UniProt P29274) assay: selectivity (A1/A2a) of CCN(CC)C(=O)c1cc(N)n2nc(-c3ccc(Cl)o3)nc2c1 [Example 233] = ?
stdout: 38.7

stdin: Notebook entry, human adenosine A2A receptor (Homo sapiens, UniProt P29274) assay: selectivity (A1/A2a) of Cn1cccc1-c1nc2cc(C(=O)NCc3ccccc3Cl)cc(N)n2n1 [Example 181] = ?
stdout: 4.7
